- SYSTEM_TESTED: T1, monomeric human sBCMA (Homo sapiens, UniProt Q02223)
- T1 construct: is comprised of the entire extracellular domain of the molecule; purchased GenScript
- T1 sequence (Q02223 1-54 limits assumed): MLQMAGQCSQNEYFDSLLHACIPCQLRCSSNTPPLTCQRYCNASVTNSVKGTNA
- EXPERIMENT_NOTES: Kinetics/affinity measurement by SPR (BioRad ProteOn XPR36), antibody captured by anti-Fc, sBCMA flowed over
- Assay type: binding
- ASSAY_SETUP: sBCMA 100-6.25 nM
Below, each entry is listed alongside its reported Koff.
Just the number, please, no unit after it.

{"MOLECULE": "15B2GL: germline form of anti-BCMA monoclonal antibody 15B2; VH SEQ ID NO: 7, VL SEQ ID NO: 8 (antibody, V domains shown) VH: EVQLVESGGGLVKPGGSLRLSCAASGFTFRSYSMNWVRQAPGKGLEWVSSISGSSNYIYYADSVKGRFTISRDNAKNSLYLQMNSLRAEDTAVYYCARGGNYYVEYFQYWGQGTLVTVSS VL: EIVLTQSPGTLSLSPGERATLSCRASQYISSNYLAWYQQKPGQAPRLLIYGASNRATGIPDRFSGSGSGTDFTLTISRLEPEDFAVYYCQQYGSSPITFGQGTKLEIK", "Koff": "2.27E−02"}
{"MOLECULE": "P10: lead optimized clone of 15B2GL; VH SEQ ID NO: 19, VL SEQ ID NO: 20 (antibody, V domains shown) VH: EVQLVESGGGLVKPGGSLRLSCAASGFTFRSYSMNWVRQAPGKGLEWVSSISGQSNYIYYADSVKGRFTISRDNAKNSLYLQMNSLRAEDTAVYYCARGGNYYVEYFQYWGQGTLVTVSS VL: EIVLTQSPGTLSLSPGERATLSCRASQYISSNYLAWYQQKPGQAPRLLIYGASNRATGIPDRFSGSGSGTDFTLTISRLEPEDFAVYYCQQYTDSPITFGQGTKLEIK", "Koff": "3.73E−03"}
{"MOLECULE": "N22: lead optimized clone of 15B2GL; VH SEQ ID NO: 17, VL SEQ ID NO: 18 (antibody, V domains shown) VH: EVQLVESGGGLVKPGGSLRLSCAASGFTFSSYSMNWVRQAPGKGLEWVSSISGSSNYIYYADSVKGRFTISRDNAKNSLYLQMNSLRAEDTAVYYCARGGNYFVEYFQYWGQGTLVTVSS VL: EIVLTQSPGTLSLSPGERATLSCRASQYISSNYLAWYQQKPGQAPRLLIYGASNRATGIPDRFSGSGSGTDFTLTISRLEPEDFAVYYCQQYSSSPITFGQGTKLEIK", "Koff": "8.73E−03"}
{"MOLECULE": "M02: lead optimized clone of 15B2GL; VH SEQ ID NO: 15, VL SEQ ID NO: 16 (antibody, V domains shown) VH: EVQLVESGGGLVKPGGSLRLSCAASGFTFSSYSMNWVRQAPGKGLEWVSSISGQSNYIYYADSVKGRFTISRDNAKNSLYLQMNSLRAEDTAVYYCARGGNYYVEYFQYWGQGTLVTVSS VL: EIVLTQSPGTLSLSPGERATLSCRASQYISSNNLAWYQQKPGQAPRLLIYGASNRATGIPDRFSGSGSGTDFTLTISRLEPEDFAVYYCQQYSSDPITFGQGTKLEIK", "Koff": "4.97E−03"}

Now for a further molecule.
Task: # Koff lookup, item L15: lead optimized clone of 15B2GL; VH SEQ ID NO: 13, VL SEQ ID NO: 14 (antibody, V domains shown) VH: EVQLVESGGGLVKPGGSLRLSCAASGFTFSSYSMNWVRQAPGKGLEWVSSISGQSNYIYYADSVKGRFTISRDNAKNSLYLQMNSLRAEDTAVYYCARGGNYFVEYFQYWGQGTLVTVSS VL: EIVLTQSPGTLSLSPGERATLSCRASQYISSNNLAWYQQKPGQAPRLLIYGASNRATGIPDRFSGSGSGTDFTLTISRLEPEDFAVYYCQQYADSPITFGQGTKLEIK
Output: 3.86E−03
